Tested on: HepG2 human hepatoma cells
Experiment: Cytotoxicity on HepG2 cells (CellTiter-Glo cell viability assay)
Assay type: cell-based
Settings: Homo sapiens, HepG2, 48 h, read-out: HepG2 EC50
pEC50: −log10 of the molar value.
Readout Kind: pEC50

q: Item COc1cc(/C=C/c2ccc3c(c2)OCO3)oc(=O)c1 has what recorded pEC50?
a: < 4.40
